Assay: PK parameters of cabozantinib and measured metabolites in human subjects
Type: in vivo
Settings: human, plasma, oral, 140 mg/day, eight human subjects, cabozantinib 140 mg/day; time zero to 24 hours post dose; read-out: AUC0-24
Test readout: AUC(0-t) (ng·h/mL)

1. COc1cc2nccc(Oc3ccc(NC(=O)C4(C(=O)Nc5ccc(F)cc5OS(=O)(=O)O)CC4)cc3)c2cc1OC [drawing 47]
2. COc1cc2c(Oc3ccc(NC(=O)C4(C(=O)Nc5ccc(F)cc5)CC4)cc3)cc[n+]([O-])c2cc1OC [drawing 46]
3. COc1cc2nccc(Oc3ccc(NC(=O)C4(C(=O)O)CC4)cc3)c2cc1OC [drawing 45]
4. COc1cc2nccc(Oc3ccc(NC(=O)C4(C(=O)Nc5ccc(F)cc5)CC4)cc3)c2cc1OC [Cabozantinib, reference compound]
Input line: Sort the compounds on AUC(0-t); start with the lowest figure. # output: labels, in the requested order
Output line: 3, 2, 1, 4
(3: 1080 ng·h/mL, 2: 2030 ng·h/mL, 1: 3970 ng·h/mL, 4: 14300 ng·h/mL)

----------
Assay: PK parameters of cabozantinib and measured metabolites in human subjects
Assay type: in vivo
Settings: human, plasma, oral, 140 mg/day
Test readout: AUC(0-inf) (ng·h/mL)

Please review the following examples before continuing.
{"Compound": "COc1cc2nccc(Oc3ccc(NC(=O)C4(C(=O)Nc5ccc(F)cc5OS(=O)(=O)O)CC4)cc3)c2cc1OC [drawing 47]", "AUC(0-inf), ng·h/mL": 29500}
{"Compound": "COc1cc2nccc(Oc3ccc(NC(=O)C4(C(=O)Nc5ccc(F)cc5)CC4)cc3)c2cc1OC [Cabozantinib, reference compound]", "AUC(0-inf), ng·h/mL": 68000}

1. COc1cc2c(Oc3ccc(NC(=O)C4(C(=O)Nc5ccc(F)cc5)CC4)cc3)cc[n+]([O-])c2cc1OC [drawing 46]
2. COc1cc2nccc(Oc3ccc(NC(=O)C4(C(=O)O)CC4)cc3)c2cc1OC [drawing 45]
Input line: Form: Entry with minimum AUC(0-inf) (choose one): 1 / 2 Please identify the chosen entry by its label.
Output line: 2
(2: 6770 ng·h/mL, 1: 10300 ng·h/mL)

----------
Experiment: PK parameters of cabozantinib and measured metabolites in human subjects
Assay type: in vivo
Details: human, plasma, oral, 140 mg/day, eight human subjects, cabozantinib 140 mg/day; time zero to 72 hours post dose; read-out: AUC0-72
Test readout: AUC(0-t) (ng·h/mL)

{"Compound": "COc1cc2c(Oc3ccc(NC(=O)C4(C(=O)Nc5ccc(F)cc5)CC4)cc3)cc[n+]([O-])c2cc1OC [drawing 46]", "AUC(0-t) (ng·h/mL)": 5610}

A. COc1cc2nccc(Oc3ccc(NC(=O)C4(C(=O)O)CC4)cc3)c2cc1OC [drawing 45]
B. COc1cc2nccc(Oc3ccc(NC(=O)C4(C(=O)Nc5ccc(F)cc5OS(=O)(=O)O)CC4)cc3)c2cc1OC [drawing 47]
C. COc1cc2nccc(Oc3ccc(NC(=O)C4(C(=O)Nc5ccc(F)cc5)CC4)cc3)c2cc1OC [Cabozantinib, reference compound]
Input line: Order the items by recorded AUC(0-t); the first position goes to the largest value. # output: labels, in the requested order
Output line: C, B, A
(C: 35000 ng·h/mL, B: 12600 ng·h/mL, A: 3120 ng·h/mL)

These measurements were taken from patent US20200163954A1.
